Test system: MGC-803
test name: Antiproliferative activity against human MGC-803 cells assessed as inhibition of cell proliferation incubated for 48 hrs by MTT assay
Type: functional, cell-based
stated conditions: MGC-803, 48 h
property label: pIC50
Please report pIC50 as the negative decimal logarithm of the molar concentration, giving only the number.

Solved cases below.
{"chemical smiles": "CCCN(c1ccc2c(ccn2C)c1)c1nc(Cl)nc2sccc12", "study target": "MGC-803", "pIC50": 7.05}
{"chemical smiles": "CN(c1ccc2[nH]ccc2c1)c1nc(Cl)nc2sccc12", "study target": "MGC-803", "pIC50": 8.37}

Field request: pIC50 | item: `CN(c1ccc2c(ccn2C)c1)c1nc(N2CCC(C(=O)OC(C)(C)C)CC2)nc2sccc12` 6.47
